tested system: β2i of mouse 20S immunoproteasome (IP) (Mus musculus, UniProt O35955)
endpoint: IC50
Note to self: number, then unit, no commentary.

**Query** Provide value of IC50 for this record tested with β2i of mouse 20S immunoproteasome (IP) (Mus musculus, UniProt O35955): CCCCCCC/C=C/C=C/C(=O)N[C@H](C(=O)N[C@H]1C[C@@H](O)CCNC(=O)/C=C/[C@H](C)NC1=O)[C@@H](C)O
**Result** 1.4 nM

###

Assay system β2i of human 20S immunoproteasome (IP) (Homo sapiens); read-out recorded as IC50.
Kindly answer with a numeric value in nM, unit omitted.

**Query** IC50 lookup needed for CCCCCCC/C=C/C=C/C(=O)N[C@H](C(=O)N[C@H]1CCCCNC(=O)/C=C/[C@H](C)NC1=O)[C@@H](C)O [LumA, luminmycin A] , thanks.
**Result** 170

New cases:
**Query** IC50 lookup needed for CCCCCCC/C=C/C=C/C(=O)N[C@H](C(=O)N[C@H]1C[C@@H](O)CCNC(=O)/C=C/[C@H](C)NC1=O)[C@@H](C)O [GlbA, glidobactin A] , thanks.
**Result** 42
